List of protein stability index values.
experiment: protein stability index of a GFP-peptide fusion (yeast GPS) (PSI 1-4); higher = more stable; sorted into four equal gates, so the index is relative within each strain; settings: doa10∆
# respond with the number and nothing more

[
  {
    "Sequence data": "YINSDSVNPAMLPGSSN [RPO31]",
    "protein stability index": 2.6
  },
  {
    "Sequence data": "ARILARSERKRTKISRG [ITC1]",
    "protein stability index": 2.56
  },
  {
    "Sequence data": "HSDMASKMYNTDKKAFL [PRP8]",
    "protein stability index": 2.91
  },
  {
    "Sequence data": "SGCENITDKTIESIVNL [GRR1]",
    "protein stability index": 2.81
  }
]

Determine from records and report protein stability index for ITQIVEKDFCTSCLQNN [SRB8] 2.35

Determine from records and report protein stability index for GIVLEKLGIESKQPNSA [RPS23A] 2.05

Determine from records and report protein stability index for DYVNKTNSHLPAGKQVE [FAS1] 3.16

Determine from records and report protein stability index for TDKVSLSQPVSASKHEY [SIR4] 2.29

Determine from records and report protein stability index for QQPHYIQRTRERKKSIG [DSN1] 2.93

Determine from records and report protein stability index for GDVGKNHITEFPSIPLP [RPC31] 3.21

Determine from records and report protein stability index for KPSKPFNVDDVLKFTFT [MED8] 3.1

Determine from records and report protein stability index for DDLPYYVNALADVLYKT [QCR2] 2.78

Determine from records and report protein stability index for SFLEKPKFAIQDNHHIT [YMR129W/POM152] 2.89

Determine from records and report protein stability index for LGVKSRLLEKSELPDIY [SNF2] 3.12

----------
assay: protein stability index of a GFP-peptide fusion (yeast GPS) (PSI 1-4); higher = more stable; sorted into four equal gates, so the index is relative within each strain; details: ubr1∆
Each entry gets not satisfied if its protein stability index stays under 3, and satisfied if its protein stability index is 3 or above.

[
  {
    "Sequence data": "TMHTKTYAAEIAHNISA [RPL32]",
    "Category": "not satisfied"
  },
  {
    "Sequence data": "ADQEQAKLIRSAIEHTT [RPO21]",
    "Category": "not satisfied"
  }
]

Please indicate if the recorded protein stability index for RAINKVLCTRLRLSNFF [SIR2] meets or exceeds 3. not satisfied

Please indicate if the recorded protein stability index for IDDNYIVVVIEIITSLS [SRB8] meets or exceeds 3. not satisfied

Please indicate if the recorded protein stability index for YIESKFCPGEIVGKSNV [YMR129W/POM152] meets or exceeds 3. not satisfied

Please indicate if the recorded protein stability index for DPALLRPGRIDRKIEFP [RPT6] meets or exceeds 3. satisfied

----------
experiment: protein stability index of a GFP-peptide fusion (yeast GPS) (PSI 1-4); higher = more stable; sorted into four equal gates, so the index is relative within each strain; conditions: ubr1∆
List of protein stability index values.
# respond with the number and nothing more

[
  {
    "Sequence data": "TNEEVRNMAEEFEYDDE [CYT1]",
    "Measurement label": "protein stability index",
    "Numeric result": 2.2
  },
  {
    "Sequence data": "TALALKYLIKYNVFRQH [CSI1]",
    "Measurement label": "protein stability index",
    "Numeric result": 1.86
  }
]

Let us move to another entry and its protein stability index.
Determine from records and report protein stability index for EVVQTGAKNIEITVVKP [PRE6] 3.04
